- System: Hamster Tracheal Organ Culture
- method_description: Reversal of keratinization in hamster tracheal organ culture
- Type: cell-based
- condition_parameters: Conc 10^-10 M
readout_name: Reversal of Keratinization, Active/Total Cultures (%)
Give just the numeric value; % need not be written.

Example cases with answers are listed next.
INSERT INTO measurements (compound, endpoint_result) VALUES
  ('CC1=C(/C=C/c2ccc3cc(C(=O)O)ccc3c2)C(C)(C)CCC1 [Example 3]', 43),
  ('CC1=C(/C=C/C(C)=C/c2ccc(C(=O)O)s2)C(C)(C)CCC1 [Example 8]', 47),
  ('CC1=C(/C=C/C(C)=C/c2ccc(C(=O)O)o2)C(C)(C)CCC1 [Example 5]', 43),
  ('CC1=C(/C=C/c2ccc3cc(C=O)ccc3c2)C(C)(C)CCC1 [Example 1]', 28),
  ('CCOC(=O)c1ccc(/C=C(C)/C=C/C2=C(C)CCCC2(C)C)o1 [Example 4]', 33);

-- ask Tell me the measured Reversal of Keratinization, Active/Total Cultures (%) of CCOC(=O)c1ccc(/C=C(C)/C=C/C2=C(C)CCCC2(C)C)s1 [Example 6] , please.
-- reply 43
